Reference source for all entries: patent US20210114983A1

# Assay System: UniProt:P53634
# Sequence (P53634 25-134 limits assumed): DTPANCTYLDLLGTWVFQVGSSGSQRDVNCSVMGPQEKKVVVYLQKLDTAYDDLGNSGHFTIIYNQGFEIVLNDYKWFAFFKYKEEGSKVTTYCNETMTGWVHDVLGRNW
# Sequence (P53634 231-394 limits assumed): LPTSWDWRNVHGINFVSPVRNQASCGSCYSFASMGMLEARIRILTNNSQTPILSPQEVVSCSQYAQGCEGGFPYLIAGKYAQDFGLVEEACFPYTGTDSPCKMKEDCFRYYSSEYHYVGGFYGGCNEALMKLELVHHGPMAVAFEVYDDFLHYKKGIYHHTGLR
# Sequence (P53634 395-463 limits assumed): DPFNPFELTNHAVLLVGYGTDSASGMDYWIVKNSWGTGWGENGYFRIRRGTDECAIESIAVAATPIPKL
# Assay Procedure: In Vitro CatC Enzyme Assay
# Type: biochemical
# Measurement Parameters: read-out: Cat C Enzy (Cathepsin C inhibitory activity, IC50)
pIC50: −log10 of the molar value.
I'd be grateful if you could share measured pIC50 for these entries.

For the compound `C=C(F)C(=O)Nc1cc(Oc2nc(Nc3ccc(N4CCN(C)CC4)cc3OC)ccc2N2CCCCC2)ccc1C` , what pIC50 is on record?
4.52 to 6.52

For the compound `C=CC(=O)Nc1cc(Oc2cccc(Nc3ccc(N4CCN(C)CC4)cc3OC)n2)ccc1C` , what pIC50 is on record?
6.52 to 8.52

For the compound `COc1cc(N2CCN(C)CC2)ccc1Nc1ccc(N2CCCCC2)c(Oc2ccc(C)c(NC(=O)C=C(C)C)c2)n1` , what pIC50 is on record?
4.52 to 6.52

For the compound `C=CC(=O)Nc1cccc(Oc2nc(Nc3ccc(N4CCN(C)CC4)cc3OC)ccc2N2CCCCC2)c1` , what pIC50 is on record?
6.52 to 8.52

For the compound `C=CC(=O)Nc1cc(Oc2nc(Nc3ccc(N4CCN(C)CC4)cc3OC)ccc2N2CCCCC2)ccc1C(F)(F)F` , what pIC50 is on record?
6.52 to 8.52
